These measurements were taken from patent US20050049294A1.

# System: HL-60 cells
# testName: Cell growth inhibition (resazurin, 48 hours), HL-60
# details: Homo sapiens, HL-60, Table 8; HL-60
reportedEndpoint: EC50 (µM)
Answers are plain numbers, in µM.

Query block: Entry C[C@@]12OC(=O)[C@]1([C@@H](O)[C@@H]1C=CCCC1)NC(=O)[C@@H]2CCCl [Formula II-16, Salinosporamide A] has what EC50?
Result block: 0.027

###

# tgt: chymotrypsin-like activity of rabbit muscle 20S proteasomes (Oryctolagus cuniculus, UniProt G1T4Q9)
# Sequence (G1T4Q9 1-263): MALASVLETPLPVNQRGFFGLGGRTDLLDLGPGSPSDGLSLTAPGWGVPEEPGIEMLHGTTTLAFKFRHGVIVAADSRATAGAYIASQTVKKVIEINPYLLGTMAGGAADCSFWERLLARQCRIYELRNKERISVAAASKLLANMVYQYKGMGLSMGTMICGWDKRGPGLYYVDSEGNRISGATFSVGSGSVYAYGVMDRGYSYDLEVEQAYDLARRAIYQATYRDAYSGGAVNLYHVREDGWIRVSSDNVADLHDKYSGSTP
# testName: Inhibition of chymotrypsin-like activity of purified rabbit muscle 20S proteasome (suc-LLVY-AMC)
# Type: biochemical
# details: EC50 Values, Chymotrypsin-like
reportedEndpoint: pEC50
Answers are plain numbers, as −log10 of the molar value.

Query block: Entry C[C@@]12OC(=O)[C@]1([C@@H](O)C1CCCCC1)NC(=O)[C@@H]2CCCl has what pEC50?
Result block: 7.74
